tgt: UniProtKB P42336
Sequence (P42336 whole entry, looked up): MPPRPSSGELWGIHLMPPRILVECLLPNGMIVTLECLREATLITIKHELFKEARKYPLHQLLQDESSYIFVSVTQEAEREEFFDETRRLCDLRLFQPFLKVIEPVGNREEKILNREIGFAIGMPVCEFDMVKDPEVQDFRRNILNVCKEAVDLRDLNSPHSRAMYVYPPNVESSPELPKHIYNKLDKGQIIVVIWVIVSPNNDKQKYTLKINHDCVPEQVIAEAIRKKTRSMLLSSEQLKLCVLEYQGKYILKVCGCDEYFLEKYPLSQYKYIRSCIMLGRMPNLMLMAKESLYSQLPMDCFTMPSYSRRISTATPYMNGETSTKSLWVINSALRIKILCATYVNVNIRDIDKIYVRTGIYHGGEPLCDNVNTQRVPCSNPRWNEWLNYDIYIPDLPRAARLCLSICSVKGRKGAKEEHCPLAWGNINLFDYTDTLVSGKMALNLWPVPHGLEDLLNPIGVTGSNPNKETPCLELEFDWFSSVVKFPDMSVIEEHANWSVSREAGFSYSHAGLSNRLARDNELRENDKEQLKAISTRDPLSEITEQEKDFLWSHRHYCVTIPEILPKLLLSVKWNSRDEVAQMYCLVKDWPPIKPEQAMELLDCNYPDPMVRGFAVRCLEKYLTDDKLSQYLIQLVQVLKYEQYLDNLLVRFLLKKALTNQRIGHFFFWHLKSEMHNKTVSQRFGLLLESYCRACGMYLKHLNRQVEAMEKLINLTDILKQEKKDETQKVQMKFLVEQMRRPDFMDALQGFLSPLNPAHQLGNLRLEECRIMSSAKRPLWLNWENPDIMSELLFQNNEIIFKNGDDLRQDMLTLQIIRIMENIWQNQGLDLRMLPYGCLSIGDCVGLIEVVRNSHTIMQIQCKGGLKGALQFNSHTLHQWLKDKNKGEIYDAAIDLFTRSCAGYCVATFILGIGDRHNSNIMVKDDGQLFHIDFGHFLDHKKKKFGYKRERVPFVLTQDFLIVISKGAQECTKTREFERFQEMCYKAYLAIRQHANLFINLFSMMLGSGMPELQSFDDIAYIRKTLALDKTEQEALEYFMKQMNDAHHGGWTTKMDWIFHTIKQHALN
Quick reference: IC50 of the listed items.

Consider the following illustrative entries.
[
  {
    "compound": "CC(C)n1ncnc1-c1nc2c(s1)CCOc1ccc(-c3ccc(N4CCOCC4)nc3)cc1-2",
    "tgt": "UniProtKB P42336",
    "result": "< 1 µM"
  },
  {
    "compound": "O=C(c1nc2c(s1)CCOc1cc(-c3cn[nH]c3)ccc1-2)N1CCN(c2ncccn2)CC1",
    "tgt": "UniProtKB P42336",
    "result": "< 1 µM"
  },
  {
    "compound": "CC(C)(O)Cn1cc(-c2ccc3c(c2)OCCc2sc(-c4nccn4C4COC4)nc2-3)cn1",
    "tgt": "UniProtKB P42336",
    "result": "< 1 µM"
  }
]

q: Find the measured IC50: item `CC(C)N(CCO)C(=O)c1nc2c(s1)CCOc1ccc(-c3ccc(N)nc3)cc1-2` , target or system UniProtKB P42336.
a: < 1 µM

q: Find the measured IC50: item `CS(=O)(=O)N1CCN(C(=O)c2nc3c(s2)CCOc2cc(-c4cn[nH]c4)ccc2-3)CC1` , target or system UniProtKB P42336.
a: < 1 µM

q: Find the measured IC50: item `Cc1ccc(-c2ccc3c(c2)-c2nc(-c4ncnn4C(C)C)sc2CCO3)cn1` , target or system UniProtKB P42336.
a: < 1 µM

q: Find the measured IC50: item `CC(C)n1ncnc1-c1nc2c(s1)CCOc1cc(CNc3ccon3)ccc1-2` , target or system UniProtKB P42336.
a: < 1 µM

q: Find the measured IC50: item `CC(C)n1ncnc1-c1nc2c(s1)CCOc1cc(C3CN(C(=O)[C@@H](C)O)C3)ccc1-2` , target or system UniProtKB P42336.
a: < 1 µM

q: Find the measured IC50: item `CC(C)n1ncnc1-c1nc2c(s1)CCOc1ccc(-c3ccc(F)nc3)cc1-2` , target or system UniProtKB P42336.
a: < 1 µM

q: Find the measured IC50: item `CC(C)n1ncnc1-c1nc2c(s1)CCOc1ccc(-c3cccn(CCN4CCOCC4)c3=O)cc1-2` , target or system UniProtKB P42336.
a: < 1 µM

q: Find the measured IC50: item `O=C1CN(c2ccc3c(n2)-c2sc(-c4ncnn4-c4ccc(F)cc4F)cc2CCO3)CCN1` , target or system UniProtKB P42336.
a: < 1 µM

q: Find the measured IC50: item `Fc1ccc(-n2ncnc2-c2cc3c(s2)-c2nc(NC4CCOCC4)ccc2OCC3)c(F)c1` , target or system UniProtKB P42336.
a: < 1 µM
